- study_system: HLA-A*0301 on mild-acid treated EKR cells (human)
- experiment_notes: competition vs FL-reference peptide, EKR cells, 4°C 24 hr
recorded_endpoint: IC50

Observe how each entry below is paired with its result.
{"columns": ["binder", "IC50"],
 "data": [
  ["TVLDVGDAY [HIV-1 pol 266-274]", "> 100 µM"],
  ["PLTEEKIK [HIV-1 pol 184-191]", "> 100 µM"]
]}

Next, consider the following binder.
Q: Could you tell me which IC50 is on file for PISPIETVPVK [HIV-1 pol 160-170] ?
Result: > 100 µM

meta.source: patent US20070025968A1
